B1: POU domain, class 3, transcription factor 1, residues 247 to 324; numbered along this chain, Q03052 (parent)
chain: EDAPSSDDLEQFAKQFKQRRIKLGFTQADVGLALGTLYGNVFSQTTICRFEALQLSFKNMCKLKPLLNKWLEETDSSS

variants of: B1; assay: abundance fitness (aPCA) (normalised: wild type 0, dead -1); higher = more abundant; growth selection in yeast, the domain comes from the species named; details: Homo sapiens
measuredAttribute: abundance fitness

Requested field: abundance fitness. Item: G35T
0.236

Requested field: abundance fitness. Item: S77N
-0.141

Requested field: abundance fitness. Item: K58C
-0.53

Requested field: abundance fitness. Item: T26M
-0.559

Requested field: abundance fitness. Item: L67Q
-1.2

Requested field: abundance fitness. Item: K64S
-0.405

Requested field: abundance fitness. Item: T45A
-0.023

Requested field: abundance fitness. Item: T45N
0.112

Requested field: abundance fitness. Item: L55G
-0.514

Requested field: abundance fitness. Item: L32K
0.086

Requested field: abundance fitness. Item: Y38P
-0.44

Requested field: abundance fitness. Item: S56I
-0.717

Requested field: abundance fitness. Item: W70K
-0.756

Requested field: abundance fitness. Item: S76D
0.089

Requested field: abundance fitness. Item: S77H
0.054

Requested field: abundance fitness. Item: E73R
-0.081

Requested field: abundance fitness. Item: C48L
-0.04

Requested field: abundance fitness. Item: L66I
0.035

Requested field: abundance fitness. Item: S43G
-0.297

Requested field: abundance fitness. Item: E72D
0.004

Requested field: abundance fitness. Item: D75L
-0.214

Requested field: abundance fitness. Item: Q54C
-0.441

Requested field: abundance fitness. Item: G35F
-0.211

Requested field: abundance fitness. Item: N40E
0.031

Requested field: abundance fitness. Item: I47H
-0.944

Requested field: abundance fitness. Item: S77V
0.045

Requested field: abundance fitness. Item: Q27P
-0.053

Requested field: abundance fitness. Item: Q54A
-0.089

Requested field: abundance fitness. Item: A52M
-0.341

Requested field: abundance fitness. Item: A33Q
0.096

Requested field: abundance fitness. Item: Y38W
-0.43

Requested field: abundance fitness. Item: Q44F
-0.323

Requested field: abundance fitness. Item: Y38V
-0.031

Requested field: abundance fitness. Item: I21L
-0.184

Requested field: abundance fitness. Item: T45W
-0.443

Requested field: abundance fitness. Item: S76P
0.099

Requested field: abundance fitness. Item: K64H
-0.126

Requested field: abundance fitness. Item: L23I
-1

Requested field: abundance fitness. Item: N68A
0.029

Requested field: abundance fitness. Item: E73S
-0.126

Requested field: abundance fitness. Item: K69V
-0.559

Requested field: abundance fitness. Item: G24D
-0.7

Requested field: abundance fitness. Item: S56M
-0.818

Requested field: abundance fitness. Item: T74C
-0.009

Requested field: abundance fitness. Item: P65Y
-0.158

Requested field: abundance fitness. Item: E72Y
-0.19

Requested field: abundance fitness. Item: K22N
0.126

Requested field: abundance fitness. Item: T36F
-0.659

Requested field: abundance fitness. Item: K58L
-0.347

Requested field: abundance fitness. Item: L71S
-0.706

Requested field: abundance fitness. Item: N68P
-0.763

Requested field: abundance fitness. Item: E72T
-0.148

Requested field: abundance fitness. Item: S43H
-0.108

Requested field: abundance fitness. Item: K22Y
0.071

Requested field: abundance fitness. Item: G35V
-0.641

Requested field: abundance fitness. Item: P65W
-0.389

Requested field: abundance fitness. Item: N59R
-0.017

Requested field: abundance fitness. Item: P65T
-0.246

Requested field: abundance fitness. Item: N68V
-0.008

Requested field: abundance fitness. Item: E51S
-0.723

Requested field: abundance fitness. Item: T46A
-0.125

Requested field: abundance fitness. Item: L66S
-0.767

Requested field: abundance fitness. Item: N40M
-0.126

Requested field: abundance fitness. Item: N40K
0.263

Requested field: abundance fitness. Item: P65D
-0.053

Requested field: abundance fitness. Item: G31R
-0.46

Requested field: abundance fitness. Item: T74M
-0.062

Requested field: abundance fitness. Item: L53H
-0.111

Requested field: abundance fitness. Item: K69P
-0.662

Requested field: abundance fitness. Item: W70Y
-0.296

Requested field: abundance fitness. Item: K62G
-0.365

Requested field: abundance fitness. Item: L32C
0.095

Requested field: abundance fitness. Item: T74H
0.231

Requested field: abundance fitness. Item: F50E
-0.299

Requested field: abundance fitness. Item: N68Q
0.011

Requested field: abundance fitness. Item: E51V
-0.525

Requested field: abundance fitness. Item: D29K
-0.057

Requested field: abundance fitness. Item: V41G
0.016

Requested field: abundance fitness. Item: K62N
0.06

Requested field: abundance fitness. Item: D29W
-0.631
